# pIC50 values compiled below
# measurement-target: UniProtKB Q06187
# assay-notes: Btk in vitro inhibitory activity (one of Method A TR-FRET, Method B electrophoretic mobility shift, Method C radiometric filter binding)
# Format: biochemical
# protocol-conditions: read-out: Btk (IC50)
pIC50: −log10 of the molar value.

molecule	measurement-target	pIC50
CN(C)C(=O)N[C@@H]1CCCN(c2cnc(C(N)=O)c(Nc3ccc(F)cc3)n2)C1 [Example 179]	UniProtKB Q06187	7.00 to 8.00
NC(=O)c1ncc(N2CC[C@H]3CCN(C(=O)C4CC4)[C@H]3C2)nc1Nc1ccc(C2CCN(C3CCCC3)CC2)cc1 (racemic) [Example 293]	UniProtKB Q06187	7.00 to 8.00
C[C@@H]1[C@H](NC(=O)N(C)C)CCCN1c1cnc(C(N)=O)c(Nc2ccc(C3(C)CCN(C4CC4)CC3)cc2)n1 [Example 247]	UniProtKB Q06187	> 8.00
NC(=O)c1nnc(N2CCC[C@@H](NC(=O)c3ccc4c(c3)nnn4C3CC3)C2)nc1Nc1ccc(C(=O)N2CCOCC2)cc1 [Example 102]	UniProtKB Q06187	> 8.00
CN(C)C(=O)N[C@@H]1CCCN(c2cnc(C(N)=O)c(Nc3ccc(N4CCN(C5CCCC5)CC4)cc3)n2)C1 [Example 215]	UniProtKB Q06187	> 8.00
CN(C)C(=O)N1CC[C@@H]2[C@H]1CCCN2c1cnc(C(N)=O)c(Nc2ccc(C3CCN(C4CCCC4)CC3)cc2)n1 (racemic) [Example 287]	UniProtKB Q06187	7.00 to 8.00
COc1ccc(C(=O)N[C@@H]2CCCN(c3cnc(C(N)=O)c(Nc4ccc(C5CCN(C6CCCC6)CC5)cc4)n3)C2)cc1 [Example 135]	UniProtKB Q06187	> 8.00
CC(C)Oc1ccc(Nc2nc(N3CCC[C@@H](NC(=O)N(C)C)C3)cnc2C(N)=O)cc1 [Example 188]	UniProtKB Q06187	> 8.00

Exercise: Tell me reported pIC50 for COc1ccc(C(=O)N[C@@H]2CCCN(c3cnc(C(N)=O)c(Nc4ccc(C5CCN(CC#N)CC5)cc4)n3)C2)cc1 [Example 136] , tested with UniProtKB Q06187.
Key: 7.00 to 8.00

Exercise: What do we get for CN(C)C(=O)N[C@@H]1CCCN(c2cnc(C(N)=O)c(Nc3ccc(C4CCN(C(=O)C5CC5)CC4)cc3)n2)C1 [Example 171] ?
Key: > 8.00

Exercise: What do we get for CN1CCN([C@@H]2CCCN(c3cnc(C(N)=O)c(Nc4ccc(N5CCS(=O)(=O)CC5)cc4)n3)C2)C1=O [Example 260] ?
Key: > 8.00

Exercise: What do we get for CN(C(=O)N[C@@H]1CCCN(c2cnc(C(N)=O)c(Nc3ccc(C4(C(N)=O)CC4)cc3)n2)C1)c1cc(Cl)cc(C(F)(F)F)c1 [Example 324] ?
Key: 7.00 to 8.00

Exercise: What do we get for CN1CCN([C@@H]2CCCN(c3cnc(C(N)=O)c(Nc4ccc(C5(C)CCN(C6CC6)CC5)cc4)n3)C2)C1=O [Example 263] ?
Key: > 8.00

Exercise: What do we get for COc1ccc(C(=O)N[C@@H]2CCCN(c3cnc(C(N)=O)c(Nc4ccc(C5CCN(C(C)C)CC5)cc4)n3)C2)cc1 [Example 134] ?
Key: > 8.00

* * *

# measurement-target: BTK (Homo sapiens (Human), UniProt Q06187)
# Sequence (Q06187 whole entry): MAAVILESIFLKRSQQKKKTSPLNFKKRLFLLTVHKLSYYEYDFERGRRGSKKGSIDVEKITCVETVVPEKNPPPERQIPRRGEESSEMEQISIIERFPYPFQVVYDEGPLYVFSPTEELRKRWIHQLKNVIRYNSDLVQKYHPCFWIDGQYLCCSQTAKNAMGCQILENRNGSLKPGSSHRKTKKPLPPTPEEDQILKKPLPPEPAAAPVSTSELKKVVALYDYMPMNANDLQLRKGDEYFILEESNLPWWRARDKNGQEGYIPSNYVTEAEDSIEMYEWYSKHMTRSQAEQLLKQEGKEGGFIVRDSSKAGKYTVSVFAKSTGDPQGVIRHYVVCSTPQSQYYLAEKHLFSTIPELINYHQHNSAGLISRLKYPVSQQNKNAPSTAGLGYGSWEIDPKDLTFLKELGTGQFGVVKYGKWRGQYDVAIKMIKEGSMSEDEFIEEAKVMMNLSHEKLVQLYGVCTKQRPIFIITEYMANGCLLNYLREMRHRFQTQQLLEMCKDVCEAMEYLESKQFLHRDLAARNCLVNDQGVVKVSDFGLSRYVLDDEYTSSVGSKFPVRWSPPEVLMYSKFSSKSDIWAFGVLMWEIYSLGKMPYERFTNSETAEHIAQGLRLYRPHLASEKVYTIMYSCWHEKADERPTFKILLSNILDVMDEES
# assay-notes: Btk in vitro inhibitory activity (one of Method A TR-FRET, Method B electrophoretic mobility shift, Method C radiometric filter binding)
# Format: biochemical
# protocol-conditions: determined using one of the methods of Example 355a, 355b and 355c; read-out: BTK IC50
pIC50: −log10 of the molar value.
endpoint-name: pIC50

Illustrative cases are given below, each with its answer.
structure-as-smiles	measurement-target	pIC50
NC(=O)c1nnc(N[C@@H]2CCCN(C(=O)C3CC3)C2)nc1Nc1ccc(C(=O)N2CCOCC2)cc1	BTK (Homo sapiens (Human), UniProt Q06187)	> 8.00
CCC(=O)N1CCC(c2ccc(Nc3nc(N4CCC[C@@H](NC(=O)N5CCCCC5)C4)nnc3C(N)=O)cc2)CC1	BTK (Homo sapiens (Human), UniProt Q06187)	> 8.00

Exercise: For the compound shown here, CN(C/C=C/C(=O)N1CC[C@@H](Nc2nnc(C(N)=O)c(Nc3ccc(C(=O)N4CCOCC4)cc3)n2)C1)C1CC1 , give the reported pIC50.
Key: 7.00 to 8.00

Exercise: What do we get for NC(=O)c1nnc(N2CCC[C@@H](NC(=O)N3CCCC3)C2)nc1Nc1ccc(C(=O)N2CCOCC2)cc1 ?
Key: 7.00 to 8.00

Exercise: What do we get for CCOc1ccc(C(=O)N[C@@H]2CCCN(c3nnc(C(N)=O)c(Nc4ccc(C5=NCCN5C)cc4)n3)C2)cc1 ?
Key: 7.00 to 8.00

* * *

# measurement-target: BTK (Homo sapiens (Human), UniProt Q06187)
# assay-notes: Btk in vitro inhibitory activity (one of Method A TR-FRET, Method B electrophoretic mobility shift, Method C radiometric filter binding)
# Format: biochemical
# protocol-conditions: determined using one of the methods of Example 355a, 355b and 355c; read-out: BTK IC50
endpoint-name: IC50

Illustrative cases are given below, each with its answer.
molecule	measurement-target	recorded-value
NC(=O)c1nnc(N[C@@H]2CCNC2)nc1Nc1ccc(C(=O)N2CCOCC2)cc1 [Example 69]	BTK (Homo sapiens (Human), UniProt Q06187)	10 to 100 nM
CCC(=O)N1CCC(c2ccc(Nc3nc(N4CCC[C@@H](NC(=O)N(C)C)C4)cnc3C(N)=O)cc2)CC1 [Example 152]	BTK (Homo sapiens (Human), UniProt Q06187)	< 10 nM
NC(=O)c1nnc(N2CCC[C@@H](NC(=O)C(=O)N3CCCCC3)C2)nc1Nc1ccc(C(=O)N2CCOCC2)cc1 [Example 83]	BTK (Homo sapiens (Human), UniProt Q06187)	100 to 1000 nM

Exercise: For the molecule shown here, CN(C)C(=O)N[C@@H]1CCCN(c2cnc(C(N)=O)c(Nc3ccn(C)c(=O)c3)n2)C1 [Example 185] , give the reported IC50.
Key: 100 to 1000 nM

Exercise: What do we get for NC(=O)c1nnc(N2CCC[C@@H](NC(=O)C3CCN(C4CC4)CC3)C2)nc1Nc1ccc(C(=O)N2CCOCC2)cc1 [Example 32] ?
Key: 10 to 100 nM

Exercise: What do we get for CC(C)OC(=O)NN(C(=O)OC(C)C)[C@@H]1CCCN(c2nnc(C(N)=O)c(Nc3ccc(C(=O)N4CCOCC4)cc3)n2)C1 [Example 46] ?
Key: 10 to 100 nM

Exercise: What do we get for NC(=O)c1nnc(N2CCC[C@@H](Oc3nccc4ccccc34)C2)nc1Nc1ccc(C(=O)N2CCOCC2)cc1 [Example 45] ?
Key: 100 to 1000 nM

* * *

# IC50 values compiled below
# measurement-target: BTK (Homo sapiens (Human), UniProt Q06187)
# assay-notes: Btk in vitro inhibitory activity (one of Method A TR-FRET, Method B electrophoretic mobility shift, Method C radiometric filter binding)
# Format: biochemical
# protocol-conditions: determined using one of the methods of Example 355a, 355b and 355c; read-out: BTK IC50

Illustrative cases are given below, each with its answer.
compound	measurement-target	IC50
CN(C)C(=O)N[C@@H]1CCCN(c2cnc(C(N)=O)c(Nc3ccc(C4CCN(c5ccccn5)CC4)cc3)n2)C1 [Example 174]	BTK (Homo sapiens (Human), UniProt Q06187)	10 to 100 nM
CN1CCN(c2ccc(Nc3nc(N4CCC[C@@H](NC(=O)c5ccc(C(C)(C)C)cc5)C4)cnc3C(N)=O)cc2)CC1 [Example 129]	BTK (Homo sapiens (Human), UniProt Q06187)	< 10 nM
C[C@H]1[C@H](N)CCCN1c1cnc(C(N)=O)c(Nc2ccc(C3CCN(C4CCCC4)CC3)cc2)n1 [Example 231]	BTK (Homo sapiens (Human), UniProt Q06187)	100 to 1000 nM

Exercise: For the compound shown here, CC(C)(C)OC(=O)N1CCC[C@@H](Nc2nnc(C(N)=O)c(Nc3ccc(C(=O)N4CCOCC4)cc3)n2)C1 [Example 60] , give the reported IC50.
Key: 100 to 1000 nM

Exercise: What do we get for COCCOc1ccc(Nc2nc(N3CCC[C@@H](NC(=O)N[C@H](C)c4ccccc4)C3)cnc2C(N)=O)cc1 [Example 347] ?
Key: 10 to 100 nM

Exercise: What do we get for CCN1CCC(c2ccc(Nc3nc(N4CCC[C@@H](NC(=O)N(C)C)C4)cnc3C(N)=O)cc2)CC1 [Example 207] ?
Key: 10 to 100 nM

Exercise: What do we get for CN(C)C(=O)N[C@@H]1CCCN(c2cnc(C(N)=O)c(Nc3ccc(C4CCN(C5CCCC5)CC4)cc3)n2)C1 [Example 155] ?
Key: < 10 nM

Exercise: What do we get for NC(=O)c1ncc(N2CCC[C@@H](N3Cc4ccccc4C3=O)C2)nc1Nc1ccc(C2CCN(C3CCCC3)CC2)cc1 [Example 307] ?
Key: < 10 nM

Exercise: What do we get for NC(=O)c1ncc(N2CCC[C@@H](NC(=O)C3CC4(CCC4)C3)C2)nc1Nc1ccc(C2CCN(C3CC3)CC2)cc1 [Example 309] ?
Key: 100 to 1000 nM

Exercise: What do we get for CN(C)C(=O)N(C)[C@@H]1CCCN(c2cnc(C(N)=O)c(Nc3ccc(C4CCN(S(C)(=O)=O)CC4)cc3)n2)C1 [Example 228] ?
Key: 10 to 100 nM

Exercise: What do we get for CC(C)C1CCN(C(=O)N[C@@H]2CCCN(c3nnc(C(N)=O)c(Nc4ccc(C(=O)N5CCOCC5)cc4)n3)C2)CC1 [Example 82] ?
Key: 10 to 100 nM
